Task for the reader: assign each of the following compounds its reported pEC50.
target: human CB2 receptors (Homo sapiens (Human)); test: cAMP assay, CHO cells expressing human CB2 receptors; assay type: cell-based; conditions: CHO cells expressing human CB2, cAMP; read-out: human CB2 EC50
Sequence (P34972 whole entry): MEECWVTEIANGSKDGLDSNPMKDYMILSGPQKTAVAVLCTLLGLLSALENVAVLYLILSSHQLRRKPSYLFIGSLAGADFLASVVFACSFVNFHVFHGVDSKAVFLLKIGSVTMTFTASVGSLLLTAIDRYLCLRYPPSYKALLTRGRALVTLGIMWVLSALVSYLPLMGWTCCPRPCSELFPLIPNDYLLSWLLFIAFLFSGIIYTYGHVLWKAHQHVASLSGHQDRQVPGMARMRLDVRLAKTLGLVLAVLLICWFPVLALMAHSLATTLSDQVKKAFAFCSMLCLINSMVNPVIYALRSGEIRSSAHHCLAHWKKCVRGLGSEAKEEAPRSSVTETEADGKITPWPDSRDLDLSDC
Numbers only, as −log10 of the molar value.

Exercise: Look up pEC50 with human CB2 receptors (Homo sapiens (Human)) for this compound: Cc1nc([C@H](CC2CC2)NC(=O)c2ccc(C3CCCC3)c(OCC3CC3)n2)no1 [Example 53]
Solution: 7.34

Exercise: Look up pEC50 with human CB2 receptors (Homo sapiens (Human)) for this compound: CCC(C)(NC(=O)c1ccc(C2CC2)c(OCC2CC2)n1)C(N)=O (centres unmarked) [Example 170]
Solution: 6.71

Exercise: Look up pEC50 with human CB2 receptors (Homo sapiens (Human)) for this compound: Cc1nc(C(C)(C)NC(=O)c2ccc(C3(O)CCC3)c(OCC3CC3)n2)no1 [Example 160]
Solution: 6.91

Exercise: Look up pEC50 with human CB2 receptors (Homo sapiens (Human)) for this compound: Cc1cc(C(C)(C)NC(=O)c2cccc(-c3cccc(Cl)c3)n2)on1 [Example 28]
Solution: 6.25

Exercise: Look up pEC50 with human CB2 receptors (Homo sapiens (Human)) for this compound: Cc1nc(C(C)(C)NC(=O)c2ccc(N3CC(=O)C3)c(OCC3CC3)n2)no1 [Example 322]
Solution: 6.37

Exercise: Look up pEC50 with human CB2 receptors (Homo sapiens (Human)) for this compound: O=C(NC1CCCCC1O)c1ccc(N2CC(F)(F)C2)c(OCC2CC2)n1 (centres unmarked) [Example 137]
Solution: 6.68

Exercise: Look up pEC50 with human CB2 receptors (Homo sapiens (Human)) for this compound: COC(=O)[C@@H](NC(=O)c1ccc(C2CC2)c(OCC2CC2)n1)C(C)(C)C [Example 239]
Solution: 8.96

Exercise: Look up pEC50 with human CB2 receptors (Homo sapiens (Human)) for this compound: CNC(=O)[C@@H](NC(=O)c1ccc(C2CC2)c(OCC2CCCO2)n1)C(C)(C)C (some centres unmarked) [Example 183]
Solution: 8.40

Working through the 3 compounds below one at a time, give pEC50 for each.
1. Cc1nc([C@H](CC2CC2)NC(=O)c2ccc(C3CC3)c(Cc3ccc(F)cc3)n2)no1 [Example 327]
2. Cc1nc(C(C)(C)NC(=O)c2ccc(N3CCC(=O)C3)c(OCC3CC3)n2)no1 [Example 334]
3. CC(C)(O)[C@H](CC1CC1)NC(=O)c1ccc(N2CC(F)(F)C2)c(OCC2CC2)n1 [Example 135]

Solution:
8.96
6.97
7.42
